test system: UACC-62 melanoma; experiment: NCI-60 one-dose screen, 48 h (100 = growth as untreated, 0 = no growth, -100 = all killed); settings: 10 µM
This is part of a sample that, as a whole, favours compounds with a hit. Of some 83,000 tested, about 20% had one in any assay. Activity calls are given as the source filed them. The calls were made as follows: active = growth percent below 10; inactive = the rest.
Measured Endpoint: growth

Form field: reported growth of Oc1[nH]c2cc(Cl)ccc2c1/C=c1/ccc2c(c1)N=C(c1cc(F)cc(F)c1)N=2
36.4% (inactive)

Form field: reported growth of Cc1ccc(Nc2cc(C)nc(NCCCNc3ccnc4cc(Cl)ccc34)n2)cc1
-92.9% (active)

Form field: reported growth of O=C1/C(=C\c2cn(C(=O)c3ccc(Cl)cc3)c3ccccc23)c2ccccc2N1C(=O)c1ccc(Cl)cc1
88.9% (inactive)

Form field: reported growth of COc1ccc(-c2cc(-c3cccc(NS(C)(=O)=O)c3)nc(N)c2C#N)cc1
39.9% (inactive)

Form field: reported growth of CCN(CC)CCOc1nc2ccc(OC)cc2c2c1-c1ccc(OC)cc1C2=O
36% (inactive)

Form field: reported growth of O=C(Nc1cccc(-n2cc(-c3ccncc3)c(-c3ccc(O)c(Cl)c3)n2)c1)Nc1cccc(C(F)(F)F)c1
-49.9% (active)

Form field: reported growth of COc1ccc(-c2nc(-c3nc4cc(Cl)c(F)cc4[nH]3)c3ccccn23)cc1
74.5% (inactive)

Form field: reported growth of COc1cc(-c2cc(/C=C3\C(=O)Nc4ccc(Cl)cc43)[nH]n2)cc(OC)c1OC
-59.6% (active)

Form field: reported growth of COc1ccc(/C(=C2/O[C@@H]([C@H]3COC(C)(C)O3)[C@H]3OC(C)(C)O[C@@H]23)c2cc(OC)c(OC)c(OC)c2)cc1O
82.9% (inactive)

Form field: reported growth of Cc1ccc(NC(=O)CSc2nc3ccccc3c(=O)n2CCc2ccccc2)c(C(=O)O)c1
99.9% (inactive)

Form field: reported growth of O=C(O)CC(Cl)C(Cl)CC(=O)O (stereo not given)
100% (inactive)

Form field: reported growth of Fc1cc(C(F)(F)F)ccc1-c1cncnc1NC1CCCCCC1
78.9% (inactive)

Form field: reported growth of CCC(=O)N1C/C(=C/c2ccc(Br)cc2)C(=O)/C(=C/c2ccc(Br)cc2)C1
-80.3% (active)

Form field: reported growth of Cc1cc(N(CCCNc2ccnc3cc(Cl)ccc23)Cc2cccs2)nc(Cl)n1
47.5% (inactive)

Form field: reported growth of COc1ccccc1CNCCCN1C(=O)c2ccc3c4c(ccc(c24)C1=O)C(=O)N(CCCN)C3=O
-90.2% (active)

Form field: reported growth of O=C1/C(=C\c2ccccc2)CN(C(=O)c2ccccc2)C/C1=C\c1ccccc1
-1.94% (active)

Form field: reported growth of COc1cc(C)ccc1C(=O)c1ccc(C)cc1OC
42.3% (inactive)

Form field: reported growth of CCOC(=O)CCC(NC(=O)c1ccc(N)cc1)C(=O)OCC (stereo not given)
103% (inactive)

Form field: reported growth of COc1ccc(C2CC(c3ccc(N(C)C)cc3)=NN2c2ccc(S(N)(=O)=O)cc2)cc1 (stereo not given)
62.3% (inactive)

Form field: reported growth of O=C1OCC2=C1C(c1cccc(Cl)c1)c1cc3c(cc1N2CCO)CCC3 (stereo not given)
26.6% (inactive)
